Assignment: determine reported IC50 for the given molecules.
TARGET OF ASSAY: human GluN1/GluN2B NMDA receptors (Homo sapiens, UniProt Q05586+Q13224)
Construct: expressed in transfected cells
Sequence (Q13224 27-1484, other chains not shown): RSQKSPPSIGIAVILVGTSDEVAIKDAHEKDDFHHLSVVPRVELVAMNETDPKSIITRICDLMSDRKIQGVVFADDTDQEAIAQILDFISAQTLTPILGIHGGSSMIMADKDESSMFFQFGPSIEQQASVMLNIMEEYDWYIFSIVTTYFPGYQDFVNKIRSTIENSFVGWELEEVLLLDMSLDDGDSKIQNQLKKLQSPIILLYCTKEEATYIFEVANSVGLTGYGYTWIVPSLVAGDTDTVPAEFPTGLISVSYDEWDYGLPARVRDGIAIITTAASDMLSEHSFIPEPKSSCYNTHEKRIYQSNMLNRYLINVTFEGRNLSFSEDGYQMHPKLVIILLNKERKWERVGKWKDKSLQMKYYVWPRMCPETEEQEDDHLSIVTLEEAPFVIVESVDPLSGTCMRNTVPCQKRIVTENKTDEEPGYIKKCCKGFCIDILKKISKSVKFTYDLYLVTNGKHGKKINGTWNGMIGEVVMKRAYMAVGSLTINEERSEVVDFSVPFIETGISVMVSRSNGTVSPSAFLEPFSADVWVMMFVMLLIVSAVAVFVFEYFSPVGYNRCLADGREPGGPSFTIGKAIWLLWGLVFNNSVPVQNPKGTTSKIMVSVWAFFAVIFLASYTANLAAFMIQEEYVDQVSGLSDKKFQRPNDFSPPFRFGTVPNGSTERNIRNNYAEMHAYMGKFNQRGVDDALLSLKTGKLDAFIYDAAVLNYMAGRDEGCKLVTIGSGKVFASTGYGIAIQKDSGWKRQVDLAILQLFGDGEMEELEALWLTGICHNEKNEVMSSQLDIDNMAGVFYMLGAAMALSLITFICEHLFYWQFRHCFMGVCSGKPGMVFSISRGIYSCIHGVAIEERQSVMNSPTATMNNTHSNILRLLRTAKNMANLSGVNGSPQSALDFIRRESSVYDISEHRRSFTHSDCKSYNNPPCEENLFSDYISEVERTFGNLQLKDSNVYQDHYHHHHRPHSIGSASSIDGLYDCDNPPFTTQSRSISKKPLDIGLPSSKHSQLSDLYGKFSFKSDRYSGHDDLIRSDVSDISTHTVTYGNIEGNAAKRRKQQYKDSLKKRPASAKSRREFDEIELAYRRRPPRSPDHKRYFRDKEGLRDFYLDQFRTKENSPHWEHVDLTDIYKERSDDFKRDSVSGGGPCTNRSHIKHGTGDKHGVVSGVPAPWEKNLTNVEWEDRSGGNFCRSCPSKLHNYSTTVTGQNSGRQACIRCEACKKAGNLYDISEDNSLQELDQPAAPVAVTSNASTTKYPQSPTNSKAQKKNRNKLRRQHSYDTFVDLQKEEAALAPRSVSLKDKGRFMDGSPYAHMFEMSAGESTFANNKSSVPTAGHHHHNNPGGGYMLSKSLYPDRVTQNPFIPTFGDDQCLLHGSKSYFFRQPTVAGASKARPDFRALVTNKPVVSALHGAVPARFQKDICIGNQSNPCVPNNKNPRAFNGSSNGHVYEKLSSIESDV
ASSAY OVERVIEW: Cell-based calcium flux (FLIPR) assay on cloned human NR1/NR2B ion channels expressed in mammalian cells (standard and HTS buffer variants);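 further: stable Tet-On inducible cell line, Ca2+ influx triggered by glutamate at about EC40 plus 10 µM glycine, fluorescent dye read-out over 5 min, normalized to control wells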
ASSAY CONDITIONS: standard assay buffer (0.5 mM MgCl2 in dye loading buffer; 137 mM NaCl, 4 mM KCl in assay buffer), human GluN1/GluN2B, read-out: NR2B IC50 (μM) standard assay
Numbers only, in µM.

[[record]]
molecule = "COc1ccc(-c2cnc3[nH]c(=O)n(Cc4ccccc4C#N)c3c2)cc1C"
measurement_label = "IC50"
readout_unit = "µM"
readout_number = 1.02

[[record]]
molecule = "CC(C)C(O)Cn1c(=O)[nH]c2ncc(-c3cccc(C(F)(F)F)c3)cc21 (racemic)"
measurement_label = "IC50"
readout_unit = "µM"
readout_number = 0.687


Ask | Look at this molecule and give its reported IC50. CCC(O)Cn1c(=O)[nH]c2ncc(-c3cccc(C(F)(F)F)c3)cc21 (racemic)
Reply | 0.119
